- target-or-system: UniProtKB Q9NWZ3
- method-notes: Hibit fluorescence detection of proteolysis (IRAK4-HiBiT in HEK293T cells)
- Assay type: cell-based
- Set-up: host or cells: HEK293T (ATCC)
- condition-details: HEK-293T

{"compound": "NC(=O)c1cnn2c(-c3cn(-c4cn(C5CCN(CCN6CCN(c7ccc8c(c7)C(=O)N(C7CCC(=O)NC7=O)C8=O)CC6)CC5)nc4C(F)F)nn3)ccc2c1 (centres unmarked)", "Dmax": "70 to 80%"}
{"compound": "Cn1c(=O)n(C2CCC(=O)NC2=O)c2cccc(N3CCC4(CCN(C[C@H]5CC[C@H](n6cc(-n7cc(-c8cnn9ccc(NCC%10CC%10)nc89)nn7)c(C(F)F)n6)CC5)C4)CC3)c21 (some centres unmarked)", "Dmax": "> 80%"}
{"compound": "Cn1c(=O)n(C2CCC(=O)NC2=O)c2cccc(CCC(=O)N3CCC4(CC3)CN(C[C@H]3CC[C@H](n5cc(-n6cc(-c7cnn8ccc(N9CCOCC9)nc78)nn6)c(C(F)F)n5)CC3)C4)c21 (some centres unmarked)", "Dmax": "60 to 70%"}
{"compound": "Cn1c(=O)n(C2CCC(=O)NC2=O)c2cccc(N3CCC4(CCN(C[C@H]5CC[C@H](n6cc(-n7cc(-c8ccc9cc(C(N)=O)cnn89)nn7)c(C(F)F)n6)CC5)C4)C3)c21 (some centres unmarked)", "Dmax": "> 80%"}
{"compound": "O=C1CCC(N2C(=O)c3ccc(N4CC(CN5CCC(n6cc(-n7cc(-c8cnn9ccc(N%10CCOCC%10)nc89)nn7)c(C(F)F)n6)CC5)C4)cc3C2=O)C(=O)N1 (centres unmarked)", "Dmax": "70 to 80%"}

----------
Here the recorded Dmax is given for each entry.
- target-or-system: IRAK4 (Homo sapiens, UniProt Q9NWZ3)
- Sequence (Q9NWZ3 1-460): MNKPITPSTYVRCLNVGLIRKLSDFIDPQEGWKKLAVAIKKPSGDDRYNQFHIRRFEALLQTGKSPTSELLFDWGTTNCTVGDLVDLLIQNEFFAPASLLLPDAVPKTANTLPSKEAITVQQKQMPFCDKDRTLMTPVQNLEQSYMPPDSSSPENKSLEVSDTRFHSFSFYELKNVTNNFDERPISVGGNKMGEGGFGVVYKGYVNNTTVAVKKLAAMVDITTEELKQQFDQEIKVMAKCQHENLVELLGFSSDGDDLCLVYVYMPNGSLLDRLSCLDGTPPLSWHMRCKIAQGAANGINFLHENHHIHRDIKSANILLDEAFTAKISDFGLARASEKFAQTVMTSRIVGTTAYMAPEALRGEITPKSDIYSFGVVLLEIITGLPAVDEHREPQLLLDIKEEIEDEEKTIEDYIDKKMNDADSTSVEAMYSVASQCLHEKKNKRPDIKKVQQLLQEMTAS
- method-notes: Hibit fluorescence detection of proteolysis (IRAK4-HiBiT in HEK293T cells)
- Assay type: cell-based
- Parameters: host or cells: HEK293T (ATCC)
- condition-details: HEK-293T
measure-name: Dmax

{"molecule": "Cn1c(=O)n(C2CCC(=O)NC2=O)c2cccc(C#CC3CN(C[C@H]4CC[C@H](n5cc(-n6cc(-c7cnn8ccc(N9CCOCC9)nc78)nn6)c(C(F)F)n5)CC4)C3)c21 (some centres unmarked)", "result": "60 to 70%"}
{"molecule": "Cn1c(=O)n(C2CCC(=O)NC2=O)c2cccc(N3CCN(C[C@H]4CC[C@H](n5cc(-n6cc(-c7cnn8ccc(NCCC(C)(C)O)nc78)nn6)c(C(F)F)n5)CC4)CC3)c21 (some centres unmarked)", "result": "> 80%"}
{"molecule": "Cn1c(=O)n(C2CCC(=O)NC2=O)c2cccc(N3CCC4(CCN(C[C@H]5CC[C@H](n6cc(-n7cc(-c8cnn9ccc(N[C@H]%10CCCC[C@H]%10O)nc89)nn7)c(C(F)F)n6)CC5)CC4)CC3)c21 (some centres unmarked)", "result": "> 80%"}
{"molecule": "Cn1c(=O)n(C2CCC(=O)NC2=O)c2cccc(N3CCC4(CCN(C[C@H]5CC[C@H](n6cc(-n7cc(-c8cnn9ccc(NCCC(C)(C)O)nc89)nn7)c(C(F)F)n6)CC5)CC4)CC3)c21 (some centres unmarked)", "result": "> 80%"}
{"molecule": "Cn1c(=O)n(C2CCC(=O)NC2=O)c2cccc(N3CCC4(CCN(C[C@H]5CC[C@H](n6cc(-n7cc(-c8cnn9ccc(N[C@@H]%10CCCC[C@@H]%10O)nc89)nn7)c(C(F)F)n6)CC5)CC4)CC3)c21 (some centres unmarked)", "result": "> 80%"}
{"molecule": "Cn1c(=O)n(C2CCC(=O)NC2=O)c2cccc(N3CCC4(CCN(C[C@H]5CC[C@H](n6cc(-n7cc(-c8ccc9cc(C(N)=O)cnn89)nn7)c(C(F)F)n6)CC5)CC4)C3)c21 (some centres unmarked)", "result": "> 80%"}
{"molecule": "Cn1c(=O)n(C2CCC(=O)NC2=O)c2cccc(N3CCN(C[C@H]4CC[C@H](n5cc(-n6cc(-c7cnn8ccc(N9CCC(O)CC9)nc78)nn6)c(C(F)F)n5)CC4)CC3)c21 (some centres unmarked)", "result": "> 80%"}
{"molecule": "Cn1c(=O)n(C2CCC(=O)NC2=O)c2cccc(N3CCC4(CCN(C[C@H]5CC[C@H](n6cc(-n7cc(-c8cnn9ccc(N[C@H]%10CCCC[C@H]%10O)nc89)nn7)c(C(F)F)n6)CC5)C4)CC3)c21 (some centres unmarked)", "result": "> 80%"}
{"molecule": "Cn1c(=O)n(C2CCC(=O)NC2=O)c2cccc(N3CC4(CCN(C[C@H]5CC[C@H](n6cc(-n7cc(-c8ccc9cc(C(N)=O)cnn89)nn7)c(C(F)F)n6)CC5)CC4)C3)c21 (some centres unmarked)", "result": "> 80%"}
{"molecule": "C[C@@H]1CN(c2cccc3c2n(C)c(=O)n3C2CCC(=O)NC2=O)CCN1C[C@H]1CC[C@H](n2cc(-n3cc(-c4cnn5ccc(N6CCOCC6)nc45)nn3)c(C(F)F)n2)CC1 (some centres unmarked)", "result": "60 to 70%"}
{"molecule": "Cn1c(=O)n(C2CCC(=O)NC2=O)c2cccc(N3CCC(N4CCN(C[C@H]5CC[C@H](n6cc(-n7cc(-c8cnn9ccc(NCCC(C)(C)O)nc89)nn7)c(C(F)F)n6)CC5)CC4)CC3)c21 (some centres unmarked)", "result": "> 80%"}

----------
Here the recorded DC50 is given for each entry.
- target-or-system: IRAK4 (Homo sapiens, UniProt Q9NWZ3)
- method-notes: Hibit fluorescence detection of proteolysis (IRAK4-HiBiT in HEK293T cells)
- Type: cell-based
- Parameters: host or cells: HEK293T (ATCC)
- condition-details: IRAK4-HiBiT, HEK293T cells, 24 h
measure-name: DC50

{"compound": "Cn1c(=O)n(C2CCC(=O)NC2=O)c2cccc(N3CCC4(CCN(C[C@H]5CC[C@H](n6cc(-n7cc(-c8cnn9ccc(N%10CCC[C@@H](O)C%10)nc89)nn7)c(C(F)F)n6)CC5)C4)CC3)c21 (stereo partly drawn) [Example 248]", "measure-name": "DC50", "result": "< 0.5 nM"}
{"compound": "Cn1c(=O)n(C2CCC(=O)NC2=O)c2cccc(CN3CCC4(CC3)CC(NC[C@H]3CC[C@H](n5cc(-n6cc(-c7cnn8ccc(N9CCOCC9)nc78)nn6)c(C(F)F)n5)CC3)C4)c21 (stereo partly drawn) [Example 4]", "measure-name": "DC50", "result": "< 0.5 nM"}
{"compound": "Cn1c(=O)n(C2CCC(=O)NC2=O)c2cccc(N3CCC4(CCN(C[C@H]5CC[C@H](n6cc(-n7cc(-c8ccc9cc(C(N)=O)cnn89)nn7)c(C(F)F)n6)CC5)CC4)CC3)c21 (stereo partly drawn) [Example 85]", "measure-name": "DC50", "result": "< 0.5 nM"}

----------
Here the recorded Dmax is given for each entry.
- target-or-system: IRAK4 (Homo sapiens, UniProt Q9NWZ3)
- Sequence (Q9NWZ3 1-460): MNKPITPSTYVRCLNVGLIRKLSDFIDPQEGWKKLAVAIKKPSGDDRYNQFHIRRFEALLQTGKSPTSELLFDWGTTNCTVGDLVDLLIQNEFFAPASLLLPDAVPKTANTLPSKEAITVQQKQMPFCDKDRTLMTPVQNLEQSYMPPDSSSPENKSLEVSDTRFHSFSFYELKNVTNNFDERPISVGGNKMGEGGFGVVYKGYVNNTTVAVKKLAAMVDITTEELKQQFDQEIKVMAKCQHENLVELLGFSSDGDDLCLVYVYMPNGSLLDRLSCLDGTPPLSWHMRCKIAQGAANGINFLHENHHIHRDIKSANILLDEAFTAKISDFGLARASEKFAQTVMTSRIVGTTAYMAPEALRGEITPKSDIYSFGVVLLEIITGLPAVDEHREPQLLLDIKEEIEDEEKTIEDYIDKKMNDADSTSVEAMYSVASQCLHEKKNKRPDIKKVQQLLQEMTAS
- method-notes: Hibit fluorescence detection of proteolysis (IRAK4-HiBiT in HEK293T cells)
- Type: cell-based
- Set-up: host or cells: HEK293T (ATCC)
- condition-details: HEK-293T

{"molecule": "Cn1c(=O)n(C2CCC(=O)NC2=O)c2cccc(N3CCC4(CCN(C[C@H]5CC[C@H](n6cc(-n7cc(-c8ccc9cc(C(N)=O)cnn89)nn7)c(C(F)F)n6)CC5)CC4)CC3)c21 (some centres unmarked) [Example 85]", "Dmax": "> 80%"}
{"molecule": "C[C@H]1CN(c2cccc3c2n(C)c(=O)n3C2CCC(=O)NC2=O)CCN1C[C@H]1CC[C@H](n2cc(-n3cc(-c4cnn5ccc(N6CCC(C)(O)CC6)nc45)nn3)c(C(F)F)n2)CC1 (some centres unmarked) [Example 284]", "Dmax": "70 to 80%"}
{"molecule": "Cn1c(=O)n(C2CCC(=O)NC2=O)c2cccc(N3CCC4(CCN(C[C@H]5CC[C@H](n6cc(-n7cc(-c8cnn9cc(C#N)cnc89)nn7)c(C(F)F)n6)CC5)CC4)C3)c21 (some centres unmarked) [Compound 202]", "Dmax": "< 60%"}
{"molecule": "Cn1c(=O)n(C2CCC(=O)NC2=O)c2cccc(N3CCC4(CCN(C[C@H]5CC[C@H](n6cc(-n7cc(-c8cnn9ccc(N%10CCOCC%10)nc89)nn7)c(C(F)F)n6)CC5)C4)C3)c21 (some centres unmarked) [Example 32]", "Dmax": "70 to 80%"}
{"molecule": "Cn1c(=O)n(C2CCC(=O)NC2=O)c2cccc(N[C@H]3CC[C@H](N(C)C[C@H]4CC[C@H](n5cc(-n6cc(-c7cnn8ccc(N9CCOCC9)nc78)nn6)c(C(F)F)n5)CC4)CC3)c21 (some centres unmarked) [Example 55]", "Dmax": "> 80%"}
